Reference source: the kinase profiling compilation of Christmann-Franck et al. (2016)

# maps each entry to its residual activity
- Subject Of Test: HIPK1 (human) (UniProt Q86Z02)
- Sequence (Q86Z02 whole entry, looked up): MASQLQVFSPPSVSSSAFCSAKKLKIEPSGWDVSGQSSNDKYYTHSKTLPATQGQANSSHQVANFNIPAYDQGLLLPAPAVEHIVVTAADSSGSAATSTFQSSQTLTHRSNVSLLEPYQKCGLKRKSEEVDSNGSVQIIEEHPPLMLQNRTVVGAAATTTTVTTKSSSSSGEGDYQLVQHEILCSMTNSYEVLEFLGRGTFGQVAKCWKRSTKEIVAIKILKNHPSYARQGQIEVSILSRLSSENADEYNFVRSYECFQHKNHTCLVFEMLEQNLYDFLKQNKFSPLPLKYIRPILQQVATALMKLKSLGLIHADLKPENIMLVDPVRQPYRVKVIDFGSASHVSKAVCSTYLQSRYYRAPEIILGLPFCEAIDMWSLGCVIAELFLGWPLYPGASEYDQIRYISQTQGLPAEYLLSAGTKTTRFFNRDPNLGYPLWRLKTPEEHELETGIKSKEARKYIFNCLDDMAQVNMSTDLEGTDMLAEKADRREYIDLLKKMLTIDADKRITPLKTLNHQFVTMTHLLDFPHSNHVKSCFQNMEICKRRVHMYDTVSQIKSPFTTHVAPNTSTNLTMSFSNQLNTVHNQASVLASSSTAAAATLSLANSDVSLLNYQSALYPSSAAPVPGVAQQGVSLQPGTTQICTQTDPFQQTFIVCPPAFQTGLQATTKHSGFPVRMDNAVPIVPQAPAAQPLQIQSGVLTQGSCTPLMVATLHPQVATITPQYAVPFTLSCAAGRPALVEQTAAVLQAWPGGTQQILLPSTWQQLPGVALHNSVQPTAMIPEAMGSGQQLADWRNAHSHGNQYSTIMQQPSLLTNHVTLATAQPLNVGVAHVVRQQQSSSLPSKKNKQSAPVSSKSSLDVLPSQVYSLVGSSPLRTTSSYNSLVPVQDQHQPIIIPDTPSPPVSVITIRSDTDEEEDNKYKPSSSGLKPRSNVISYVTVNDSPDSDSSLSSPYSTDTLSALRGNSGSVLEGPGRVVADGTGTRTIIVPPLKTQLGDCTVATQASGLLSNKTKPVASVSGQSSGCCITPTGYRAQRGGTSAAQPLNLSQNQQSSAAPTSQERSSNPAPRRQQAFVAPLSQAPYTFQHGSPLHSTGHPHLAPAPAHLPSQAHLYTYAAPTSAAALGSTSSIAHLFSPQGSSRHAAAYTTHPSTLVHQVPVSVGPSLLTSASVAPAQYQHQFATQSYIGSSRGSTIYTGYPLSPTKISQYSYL
- Test: radiometric filter-binding kinase assay, Kinase HotSpot
- Assay Context: compound 0.5 µM; ATP 10 µM
Measured Parameter: residual activity (%)

- Cc1ccc(Nc2nccc(N(C)c3ccc4c(C)n(C)nc4c3)n2)cc1S(N)(=O)=O: 97.6
- O=C1NC(=O)c2c1c1c3ccccc3n3c1c1c2c2ccccc2n1C1CCC3O1: 93.6
- O=S(=O)(c1cccc2cnccc12)N1CCCNCC1: 96.8
- COc1ccc2c(c[n+](C)c3c4cc5c(cc4ccc23)OCO5)c1OC: 100
- CCN(CC)C(=O)c1ccc(Nc2nc(OCC3CCCCC3)c3nc[nH]c3n2)cc1: 104
- CCOC(=O)c1c(C)[nH]c(/C=C2\C(=O)Nc3ccccc32)c1C: 97.3
- CO[C@H]1CC2CC[C@@H](C)[C@@](O)(O2)C(=O)C(=O)N2CCCC[C@H]2C(=O)OC([C@H](C)C[C@@H]2CC[C@@H](O)[C@H](OC)C2)CC(=O)[C@H](C)/C=C(\C)[C@@H](O)[C@@H](OC)C(=O)[C@H](C)C[C@H](C)/C=C/C=C/C=C/1C (some centres undefined): 99.1
- Nc1ccc2ncnc(NCCc3ccc(Oc4ccccc4)cc3)c2c1: 104
- CC[n+]1c(/C=C/N(C)c2ccccc2)n(-c2ccccc2)c2ccc(-c3nc4ccccc4s3)cc21: 99.5
- Cc1[nH]c(/C=C2\C(=O)Nc3ccc(S(=O)(=O)N(C)c4cccc(Cl)c4)cc32)c(C)c1C(=O)N1CCN(C)CC1: 104
- Cc1ccc(NC2=CC(=O)c3sc(C)nc3C2=O)cc1: 96.7
- Nc1cccc(-c2cc3c(Oc4cccc(O)c4)ncnc3[nH]2)c1: 82.7
- CNc1cc2c(Nc3cccc(Br)c3)ncnc2cn1: 96.5
- CC#CC(=O)Nc1cc2c(Nc3ccc(F)c(Cl)c3)ncnc2cn1: 108
